Test system: P388
measurementDescription: Concentration required for 50% inhibition of incorporation of labeled uridine by P388 cells for the synthesis of RNA (in vitro); Not determined because of lack of DNA binding
Format: functional, cell-based
settings: Mus musculus
measurementType: ED50

{"entrySmiles": "CCCCCCCCCCCNc1c(C(=O)N[C@H]2C(=O)N[C@@H](C(C)C)C(=O)N3CCC[C@H]3C(=O)N(C)CC(=O)N(C)[C@H](C(C)C)C(=O)O[C@H]2C)c2nc3c(C(=O)N[C@@H]4C(=O)N[C@H](C(C)C)C(=O)N5CCC[C@@H]5C(=O)N(C)CC(=O)N(C)[C@@H](C(C)C)C(=O)O[C@@H]4C)ccc(C)c3oc-2c(C)c1=O", "valueMeasured": "Not measurable"}
{"entrySmiles": "CCCCCCCCCNc1c(C(=O)N[C@H]2C(=O)N[C@@H](C(C)C)C(=O)N3CCC[C@H]3C(=O)N(C)CC(=O)N(C)[C@H](C(C)C)C(=O)O[C@H]2C)c2nc3c(C(=O)N[C@@H]4C(=O)N[C@H](C(C)C)C(=O)N5CCC[C@@H]5C(=O)N(C)CC(=O)N(C)[C@@H](C(C)C)C(=O)O[C@@H]4C)ccc(C)c3oc-2c(C)c1=O", "valueMeasured": "Not measurable"}
{"entrySmiles": "CCCCCCNc1c(C(=O)N[C@H]2C(=O)N[C@@H](C(C)C)C(=O)N3CCC[C@H]3C(=O)N(C)CC(=O)N(C)[C@H](C(C)C)C(=O)O[C@H]2C)c2nc3c(C(=O)N[C@@H]4C(=O)N[C@H](C(C)C)C(=O)N5CCC[C@@H]5C(=O)N(C)CC(=O)N(C)[C@@H](C(C)C)C(=O)O[C@@H]4C)ccc(C)c3oc-2c(C)c1=O", "valueMeasured": "Not measurable"}
{"entrySmiles": "CCCCCNc1c(C(=O)N[C@H]2C(=O)N[C@@H](C(C)C)C(=O)N3CCC[C@H]3C(=O)N(C)CC(=O)N(C)[C@H](C(C)C)C(=O)O[C@H]2C)c2nc3c(C(=O)N[C@@H]4C(=O)N[C@H](C(C)C)C(=O)N5CCC[C@@H]5C(=O)N(C)CC(=O)N(C)[C@@H](C(C)C)C(=O)O[C@@H]4C)ccc(C)c3oc-2c(C)c1=O", "valueMeasured": "Not measurable"}
{"entrySmiles": "Cc1c2oc3c(C)ccc(C(=O)N[C@@H]4C(=O)N[C@H](C(C)C)C(=O)N5CCC[C@@H]5C(=O)N(C)CC(=O)N(C)[C@@H](C(C)C)C(=O)O[C@@H]4C)c3nc-2c(C(=O)N[C@H]2C(=O)N[C@@H](C(C)C)C(=O)N3CCC[C@H]3C(=O)N(C)CC(=O)N(C)[C@H](C(C)C)C(=O)O[C@H]2C)c(NCCCCCCCCN)c1=O", "valueMeasured": "Not measurable"}

The reported numbers originate from ChEMBL document CHEMBL1121923.
